Would you kindly list activity for each of these compounds?
# STUDY TARGET: Nuclear receptor subfamily 1 group D member 1 (Homo sapiens)
# PROTOCOL NOTES: modulators of Rev-erb alpha DNA binding, primary screen, biochemical, FITC-DNA, fluorescence polarization, uHTS (AID 1259318);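 note: 0% = DMSO wells with 35 nM protein and 100% = DMSO wells with 750 nM protein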
# RUN PARAMETERS: Rev-erbα–FITC-DNA binding, 90 min, at 10 µM, active compounds read high
Among all 370,000 compounds or so, about 3,000 (0.81%) were called active. This is one part of a sample in which actives are shown more often than they occur.
Express the result in % but write the number alone.

Prompt: Field request: activity | item: `Nc1nc2c(ncn2[C@@H]2O[C@H](C(=O)N[C@H](Cc3ccccc3)C(=O)NCC3CCCCC3)[C@@H](O)[C@H]2O)c(=O)[nH]1`
Completion: 2.3

Prompt: What do you have for `Cc1ccc(C2=Nc3c(ccc4ccccc34)C(c3ccncc3)=NN2)cc1` ?
Completion: 3.5

Prompt: Record: `CCOC(=O)c1nnn2c1nc(N1CCN(c3ccccc3)CC1)c1ccccc12`
Completion: -1.6

Prompt: Cool, now `CC(C)N(C(=O)Cn1c(SCC(=O)N2CCN(c3ccccc3)CC2)nc2ccccc21)C(C)C`
Completion: 1.23

Prompt: Try this compound next: `O=C(OCc1ccccc1)c1ccc(O)cc1`
Completion: -3.01

----------
# STUDY TARGET: Nuclear receptor subfamily 1 group D member 1 (Homo sapiens)
# PROTOCOL NOTES: modulators of Rev-erb alpha DNA binding, primary screen, biochemical, FITC-DNA, fluorescence polarization, uHTS (AID 1259318);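 note: 0% = DMSO wells with 35 nM protein and 100% = DMSO wells with 750 nM protein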
# RUN PARAMETERS: Rev-erbα–FITC-DNA binding, 90 min, at 10 µM
The whole screen tested about 370,000 compounds, of which about 3,000 (0.81%) were called active.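 The calls were made as follows: active = activity above about 14% (limit read from the data; passing the limit was not always enough); inactive = the rest.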 This is one part of a sample in which actives are shown more often than they occur.
Respond with a class label; see t = active, f = inactive

Prompt: What call does the record list for `Cn1c(-c2sccc2OCc2cccc(C(F)(F)F)c2)n[nH]c1=S` ?
Completion: f

Prompt: Also need `COCCn1c(=NC(=O)c2ccccc2[N+](=O)[O-])sc2cc(S(C)(=O)=O)ccc21` , thanks.
Completion: f

Prompt: What about this molecule? `Cc1ccc(NS(=O)(=O)c2cc3c(cc2C)NC(=O)CO3)cc1`
Completion: f

Prompt: What do you get for `Cn1c(=NC(=O)c2ccc3c(c2)OCCO3)sc2cc(S(C)(=O)=O)ccc21` ?
Completion: t

Prompt: Now try `NC(=O)C1CCN(Cc2nc3c(Br)cc(Br)cc3c(=O)[nH]2)CC1` .
Completion: f

Prompt: Another molecule to look at: `O=C1CN(C(=O)COc2c(Cl)cccc2Cl)c2ccccc2N1`
Completion: f

Prompt: Please give the result for `Cc1ccc(-c2noc(CCC(=O)Nc3ccccc3N3CCN(C)CC3)n2)cc1` too.
Completion: f

Prompt: Then `COc1ccc(C(=O)NCC2CCCCC2)cc1S(=O)(=O)N1CCCC1` ?
Completion: f

Prompt: Another molecule to check: `NC(N)=Nc1nc2ccc(Br)cc2c(=O)[nH]1`
Completion: t

Prompt: Same question for `Cc1cc(Br)cn2c(Cc3cccc(F)c3)c(-c3cccc(Br)c3)nc12` please.
Completion: f

Prompt: Queued: `CCN(CC(=O)Nc1c(F)cccc1F)C(=O)C1CCC1`
Completion: f

----------
# STUDY TARGET: Nuclear receptor subfamily 1 group D member 1 (Homo sapiens) (UniProt P20393)
# Sequence (P20393 whole entry, looked up): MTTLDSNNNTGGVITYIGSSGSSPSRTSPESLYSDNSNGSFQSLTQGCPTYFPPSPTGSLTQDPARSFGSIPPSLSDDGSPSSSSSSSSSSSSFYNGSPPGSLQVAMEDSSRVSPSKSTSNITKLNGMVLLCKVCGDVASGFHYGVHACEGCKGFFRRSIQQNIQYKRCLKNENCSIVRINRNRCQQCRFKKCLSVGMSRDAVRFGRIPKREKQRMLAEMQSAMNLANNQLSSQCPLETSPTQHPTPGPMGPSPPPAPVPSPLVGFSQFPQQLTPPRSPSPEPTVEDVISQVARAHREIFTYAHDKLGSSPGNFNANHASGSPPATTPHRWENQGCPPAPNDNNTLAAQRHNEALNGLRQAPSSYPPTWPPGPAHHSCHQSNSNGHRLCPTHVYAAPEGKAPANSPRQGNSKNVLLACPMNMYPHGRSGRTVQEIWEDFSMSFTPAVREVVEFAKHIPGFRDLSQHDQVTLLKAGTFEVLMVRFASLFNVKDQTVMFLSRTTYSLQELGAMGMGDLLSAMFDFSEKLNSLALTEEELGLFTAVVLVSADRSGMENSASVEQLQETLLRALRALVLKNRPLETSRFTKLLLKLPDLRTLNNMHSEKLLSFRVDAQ
# PROTOCOL NOTES: modulators of Rev-erb alpha DNA binding, primary screen, biochemical, FITC-DNA, fluorescence polarization, uHTS (AID 1259318);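 note: 0% = DMSO wells with 35 nM protein and 100% = DMSO wells with 750 nM protein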
# RUN PARAMETERS: Rev-erbα–FITC-DNA binding, 90 min, at 10 µM, active compounds read high
The whole screen tested about 370,000 compounds, of which about 3,000 (0.81%) were called active. What follows is part of a selection rich in actives, with near analogues and random picks from the rest.
QUANTITY KIND: activity (%)
Entry rule: numbers only, all in %.

Prompt: Name the recorded activity for COCCN1C2=C(COC(C)(C)C2)C(=S)NC1c1ccccc1 (stereo not given) .
Completion: 1.37

Prompt: Now try `COc1ccc(-n2c(SCC(=O)Nc3ccc(C)c(Cl)c3)nc3ccccc3c2=O)cc1` .
Completion: -4.51

Prompt: Field entry: `COc1cccc(-n2c(SCC(=O)c3c[nH]c4ccccc34)nc3ccccc3c2=O)c1`
Completion: 69.3

Prompt: Quick one: O=C(CC1SC(=Nc2ccccc2)N(Cc2ccccn2)C1=O)Nc1cccc(Cl)c1 (stereo not given)
Completion: 1.93

Prompt: Next compound: `CCCOc1cc(C)c(S(=O)(=O)n2nnc3ccccc32)cc1C`
Completion: -0.13

Prompt: // next record `COC(=O)CN1C(=O)C(C)(C)Oc2ccc(C(=O)Nc3cccc(OC)c3)cc21`
Completion: 6.32

Prompt: Thanks! And `CCc1c(-c2ccc(F)cc2)ncn1Cc1cccc(-c2ccccc2)c1` ?
Completion: -5.19

Prompt: Similarly, `COc1ccc(CN2C/C(=C/c3ccccc3)N3C(=O)C[C@@H](c4ccccc4)N=C23)c(OC)c1` ?
Completion: -2.77

Prompt: Note, next up: Cc1ccc(CNC(=O)CC(NC(=O)c2ccccc2)c2ccccc2)cc1 (stereo not given)
Completion: -3.7

Prompt: For `CCSC1=NCCN1S(=O)(=O)c1ccc(F)cc1` then?
Completion: 8.78

----------
# STUDY TARGET: Nuclear receptor subfamily 1 group D member 1 (Homo sapiens) (UniProt P20393)
# PROTOCOL NOTES: modulators of Rev-erb alpha DNA binding, primary screen, biochemical, FITC-DNA, fluorescence polarization, uHTS (AID 1259318);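 note: 0% = DMSO wells with 35 nM protein and 100% = DMSO wells with 750 nM protein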
# RUN PARAMETERS: Rev-erbα–FITC-DNA binding, 90 min, at 10 µM, active compounds read high
In all, about 370,000 compounds went through this assay and about 3,000 (0.81%) were called active. The sample holds actives, similar compounds and a random draw of the others, so the mix is not that of the screen.
QUANTITY KIND: activity (%)
// units = %; emit number, no label

Prompt: Which measured activity value corresponds to `Cc1nn(CC#N)c(=O)n1N(C)c1ncc(C(F)(F)F)cc1Cl` ?
Completion: 7.64

Prompt: Input `CC1(C)OC[C@@H](COC(=O)CCc2ccc(OC[C@@H](O)CNCCNC(=O)N3CCOCC3)cc2)O1`
Completion: 0.02

Prompt: How about this molecule: CC(Sc1nnnn1C)C(=O)NC(=O)NC1CCCCC1 (stereo not drawn)
Completion: 6.95

Prompt: And the next one, C=CCN(Cc1ccc2c(c1)OCO2)C(C#CC1CC1)C(C)(C)C (stereo not drawn) ?
Completion: 0.61

Prompt: Same lookup for `O=C(Nc1ccccc1F)c1ccccc1-c1ccccc1` , please.
Completion: 8.73

Prompt: And the next one, `CCN1C(=O)/C(=C\N2CCN(c3cccc(Cl)c3)CC2)SC1=S` ?
Completion: 877

Prompt: Subsequent entry: `CCCCN(CCCC)CCNC(=O)CN1C(=O)COc2ccc(S(=O)(=O)N3CCOCC3)cc21`
Completion: 2.87

Prompt: Moving on to CCC(C)NC(=O)c1cc(Cl)ccc1OC (stereo not drawn)
Completion: -0.16

Prompt: Can you handle `Cc1ccc(NC(=O)c2cc(C)nn2-c2ccccc2)c(C)c1` next?
Completion: 2.36

Prompt: Then CCC(C)C1(C2CCCC2)NC(=O)NC1=O (stereo not drawn) ?
Completion: 16.3

Prompt: Try the molecule `N#Cc1c(-c2ccc(F)cc2)cc(C2CC2)nc1SCC(=O)c1cccs1`
Completion: 174

Prompt: Here is the next molecule: CC1(C)C(C=C(Cl)Cl)C1C(=O)N(Cc1ccc(Cl)cc1)C1CCS(=O)(=O)C1 (stereo not drawn)
Completion: 2.8

Prompt: Follow-up item: CC1(C)CC2CC(C)(CN2c2ncnc3ccc(Br)cc23)C1 (stereo not drawn)
Completion: 20.4

Prompt: Next: CC(=O)Nc1sc2c(c1C(c1cccc(F)c1)N1CCN(CCO)CC1)CCCC2 (stereo not drawn)
Completion: -4.11

Prompt: Would you kindly repeat that for `CC(C)NC(=O)CCCn1c(=S)[nH]c2cc3c(cc2c1=O)OCO3` ?
Completion: -1.56

Prompt: Another: `CCN1C(=O)/C(=C\N2CCOCC2)SC1=S`
Completion: 2.02

Prompt: Entry `COc1cccc(CNC(=O)[C@H]2CCCN2C(=O)[C@H]2CCCN2C(=O)C2CCCCC2)c1` please
Completion: 4.65

Prompt: // next record `CCSc1nnc(SCC(=O)NNC(=O)c2ccccc2F)s1`
Completion: -6.25

Prompt: For `CC(=O)c1c(C)n([O-])c2ccccc2[n+]1=O` then?
Completion: 4.5

Prompt: Further, for `COc1ccc(Cl)cc1-c1cc(C(=O)Nc2cc(OC)c(OC)c(OC)c2)[nH]n1` ?
Completion: 0.68

Prompt: Item: `COc1ccc(CN2[C@@H](CC(=O)O)c3cc(F)ccc3S2(=O)=O)cc1`
Completion: 1.62

Prompt: // next record `CCCc1nnc(NC(=O)CCC(=O)N2CCN(S(=O)(=O)c3ccc(OC)cc3)CC2)s1`
Completion: -2.83

Prompt: Try O=C(c1cccs1)N1CCCC(c2nc(-c3ccc(F)cc3)no2)C1 (stereo not drawn) next.
Completion: 1.09

Attribution: PubChem BioAssay AID1259318
